Quick reference for chromatographic logD among some compounds
Experiment: CHI Log D procedure
Type: physicochemical
Conditions: pH 7.4, CHI Log D

{"COMPOUND": "CC[C@H](C)[C@@H]1NC(=O)[C@H](CC(=O)O)NC(=O)[C@]2(CC=CCCCC3(CCCC=CCCCCCC[C@@](C)(C(=O)N[C@@H](Cc4ccccc4)C(=O)N[C@@H](Cc4csc5ccccc45)C(=O)N[C@@H](CCC(N)=O)C(N)=O)NC(=O)[C@H](CCC(N)=O)NC(=O)[C@H](Cc4ccccc4)NC(=O)[C@H](C)NC(=O)[C@H](C)NC(=O)[C@H](CCCC(=O)O)NC(=O)[C@H](CC(=O)O)NC3=O)NC1=O)CCCN2C(C)=O (stereo partly drawn)", "chromatographic logD": 2.41}
{"COMPOUND": "CC(=O)N1CCC[C@]12CC=CCCCC1(CCCC=CCCCOC(=O)N3CC[C@@](C(=O)N[C@@H](Cc4ccsc4)C(=O)N[C@@H](Cc4csc5ccccc45)C(=O)N[C@@H](CCC(N)=O)C(N)=O)(C3)NC(=O)[C@H](CC(N)=O)NC(=O)[C@H](Cc3ccccc3)NC(=O)[C@H](CCCCNC(=O)C34CC5CC(CC(C5)C3)C4)NC(=O)[C@H](C)NC(=O)[C@H](CC(=O)O)NC(=O)[C@H](CC(=O)O)NC1=O)NC(=O)[C@H](CC(C)(C)C)NC(=O)[C@H](CC(=O)O)NC2=O (stereo partly drawn)", "chromatographic logD": 2.26}
{"COMPOUND": "CC(=O)N[C@@H](Cc1ccccc1)C(=O)N[C@@H](CC(=O)O)C(=O)N[C@@H](C)C(=O)N[C@]1(C)CCCCCCC=CCOC(=O)N2CC[C@@](C(=O)N[C@@H](Cc3ccccc3)C(=O)N[C@@H](Cc3c[nH]c4ccccc34)C(=O)N[C@@H](CCC(N)=O)C(N)=O)(C2)NC(=O)[C@H](C(C)C)NC(=O)[C@H](Cc2ccc(F)c(F)c2)NC(=O)[C@H](C)NC(=O)[C@H](C)NC(=O)[C@H](CC(=O)O)NC(=O)[C@H](CC(=O)O)NC1=O", "chromatographic logD": 1.27}
{"COMPOUND": "CC[C@@H](C)[C@@H](NC(=O)[C@H](Cc1c[nH]cn1)NC(=O)[C@H](Cc1csc2ccccc12)NC(=O)[C@H](Cc1ccccc1)NC(=O)[C@]1(C)CCCCCCC=CCCCC2(CCCC=CC[C@]3(CCCN3C(C)=O)C(=O)N[C@@H](CC(=O)O)C(=O)N[C@@H](CC(C)C)C(=O)N2)C(=O)N[C@@H](CC(=O)O)C(=O)N[C@@H](CCC(=O)O)C(=O)N[C@@H](C)C(=O)N[C@@H](C)C(=O)N[C@@H](Cc2ccccc2)C(=O)N[C@@H](CC(N)=O)C(=O)N1)C(N)=O (stereo partly drawn)", "chromatographic logD": 2.8}
{"COMPOUND": "CC(=O)N[C@@H](Cc1ccccc1)C(=O)N[C@@H](CC(=O)O)C(=O)N[C@@H](C)C(=O)N[C@]1(C)CCCCCCC=CCOC(=O)N2CC[C@@](C(=O)N[C@@H](CC3CCCCC3)C(=O)N[C@@H](Cc3c[nH]c4ccccc34)C(=O)N[C@@H](CCC(N)=O)C(N)=O)(C2)NC(=O)[C@H](C(C)C)NC(=O)[C@H](Cc2ccccc2)NC(=O)[C@H](C)NC(=O)[C@H](C)NC(=O)[C@H](CC(=O)O)NC(=O)[C@H](CC(=O)O)NC1=O (single isomer, unassigned)", "chromatographic logD": 1.36}
{"COMPOUND": "CC(=O)N1CCC[C@]12CC=CCCCC1(CCCC=CCCCCCC[C@@](C)(C(=O)N[C@@H](Cc3ccccc3)C(=O)N[C@@H](Cc3csc4ccccc34)C(=O)N[C@@H](CCC(N)=O)C(N)=O)NC(=O)[C@H](C(C)C)NC(=O)[C@H](Cc3ccccc3)NC(=O)[C@H](C)NC(=O)[C@H](C)NC(=O)[C@H](CCc3ccccc3)NC(=O)[C@H](CC(=O)O)NC1=O)NC(=O)[C@H](C)NC(=O)[C@H](CC(=O)O)NC2=O (stereo partly drawn)", "chromatographic logD": 3.26}
{"COMPOUND": "CC(=O)N1CCC[C@]12CC=CCCCC1(CCCC=CCCCOC(=O)N3CC[C@@](C(=O)N[C@@H](Cc4ccsc4)C(=O)N[C@@H](Cc4csc5ccccc45)C(=O)N[C@@H](CCC(N)=O)C(N)=O)(C3)NC(=O)[C@H](CC(N)=O)NC(=O)[C@H](Cc3ccccc3)NC(=O)[C@H](CCCCNC(=O)C34CC5(C)CC(C)(CC(C)(C5)C3)C4)NC(=O)[C@H](C)NC(=O)[C@H](CC(=O)O)NC(=O)[C@H](CC(=O)O)NC1=O)NC(=O)[C@H](CC(C)(C)C)NC(=O)[C@H](CC(=O)O)NC2=O (stereo partly drawn)", "chromatographic logD": 2.74}
{"COMPOUND": "CC(=O)N1CCC[C@]12CC=CCCCC1(CCCC=CCCCCCC[C@@](C)(C(=O)N[C@@H](Cc3ccccc3)C(=O)N[C@@H](Cc3csc4ccccc34)C(=O)N[C@@H](CCC(N)=O)C(N)=O)NC(=O)[C@H](CCC(N)=O)NC(=O)[C@H](Cc3ccccc3)NC(=O)[C@H](C)NC(=O)[C@H](C)NC(=O)[C@H](CCC(=O)O)NC(=O)[C@H](CC(=O)O)NC1=O)NC(=O)[C@H](CCC(C)C)NC(=O)[C@H](CC(=O)O)NC2=O (stereo partly drawn)", "chromatographic logD": 2.57}
{"COMPOUND": "CC(=O)N1CCC[C@]12CC=CCCCC1(CCCC=CCCCCCC[C@@](C)(C(=O)N[C@@H](Cc3ccccc3)C(=O)N[C@@H](Cc3c[nH]c4ccccc34)C(=O)N[C@@H](CCC(N)=O)C(N)=O)NC(=O)[C@H](C(C)C)NC(=O)C(Cc3cncn3C)NC(=O)[C@H](C)NC(=O)[C@H](C)NC(=O)[C@H](CC(=O)O)NC(=O)[C@H](CC(=O)O)NC1=O)NC(=O)[C@H](C)NC(=O)[C@H](CC(=O)O)NC2=O (single isomer, unassigned)", "chromatographic logD": 2.02}

----------
Biological target: beta-catenin/TCF4 engagement (Homo sapiens, UniProt P35222)
Construct: expressed in transfected cells; host or cells: HEK293
Sequence (P35222 whole entry): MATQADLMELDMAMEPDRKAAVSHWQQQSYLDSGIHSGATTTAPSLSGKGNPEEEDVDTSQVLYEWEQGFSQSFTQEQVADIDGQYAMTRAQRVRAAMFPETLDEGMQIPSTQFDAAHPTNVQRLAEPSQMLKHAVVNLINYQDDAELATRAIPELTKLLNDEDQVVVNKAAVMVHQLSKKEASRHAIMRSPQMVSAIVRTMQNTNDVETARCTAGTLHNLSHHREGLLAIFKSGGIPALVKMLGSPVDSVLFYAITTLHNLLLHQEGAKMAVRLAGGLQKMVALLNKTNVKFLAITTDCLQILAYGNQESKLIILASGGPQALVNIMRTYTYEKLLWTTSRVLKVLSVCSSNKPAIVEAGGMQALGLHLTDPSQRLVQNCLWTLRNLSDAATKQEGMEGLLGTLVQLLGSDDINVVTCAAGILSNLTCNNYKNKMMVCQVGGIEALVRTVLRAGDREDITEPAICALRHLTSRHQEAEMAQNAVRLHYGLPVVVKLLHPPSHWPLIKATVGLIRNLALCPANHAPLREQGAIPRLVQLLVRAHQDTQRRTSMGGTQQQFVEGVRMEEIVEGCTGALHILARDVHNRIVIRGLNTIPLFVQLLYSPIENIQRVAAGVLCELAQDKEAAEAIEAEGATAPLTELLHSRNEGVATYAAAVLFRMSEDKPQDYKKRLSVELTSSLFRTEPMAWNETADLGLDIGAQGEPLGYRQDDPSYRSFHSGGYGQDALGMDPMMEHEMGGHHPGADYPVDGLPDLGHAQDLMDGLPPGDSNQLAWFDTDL
Assay: Nano-BRET target engagement assay (B-cat-Halo & TCF4-Luc in HEK293 cells)
Assay type: cell-based
Conditions: absolute IC50; read-out: NanoBRET Abs IC50
pIC50: −log10 of the molar value.
OBSERVATION_TYPE: pIC50

{"COMPOUND": "CC(=O)N1CCC[C@]12CC=CCCCC1(CCCC=CCCCOC(=O)N3CC[C@@](C(=O)N[C@@H](Cc4ccccc4C(F)(F)F)C(=O)N[C@@H](Cc4csc5ccccc45)C(=O)N[C@@H](CCC(N)=O)C(=O)N[C@@H](CC(C)C)C(=O)N[C@H](C(N)=O)C(C)C)(C3)NC(=O)[C@H](CC(C)C)NC(=O)[C@H](Cc3ccccc3)NC(=O)[C@H](C)NC(=O)[C@H](C)NC(=O)[C@H](Cc3cccc(C(=O)O)c3)NC(=O)[C@H](CC(=O)O)NC1=O)NC(=O)[C@H](CC(C)(C)C)NC(=O)[C@H](CC(=O)O)NC2=O (some centres unmarked)", "STUDY_SYSTEM": "beta-catenin/TCF4 engagement (Homo sapiens, UniProt P35222)", "REL": "=", "REPORTED_RESULT": 5.30}
{"COMPOUND": "CC(=O)N1CCC[C@]12CC=CCCCC1(CCCC=CCCCOC(=O)N3CC[C@@](C(=O)N[C@@H](Cc4ccccc4C(F)(F)F)C(=O)N[C@H](C(=O)N[C@@H](C)C(N)=O)[C@@H](C)c4ccc5ccccc5c4)(C3)NC(=O)[C@H](CC(C)C)NC(=O)[C@H](Cc3ccccc3)NC(=O)[C@H](C)NC(=O)[C@H](CCC(N)=O)NC(=O)[C@H](Cc3cccc(C(=O)O)c3)NC(=O)[C@H](CC(=O)O)NC1=O)NC(=O)[C@H](CC(C)(C)C)NC(=O)[C@H](CC(=O)O)NC2=O (some centres unmarked)", "STUDY_SYSTEM": "beta-catenin/TCF4 engagement (Homo sapiens, UniProt P35222)", "REL": "<", "REPORTED_RESULT": 4.70}

----------
Biological target: beta-catenin/TCF4 engagement (Homo sapiens)
Construct: expressed in transfected cells; host or cells: HEK293
Experiment: Nano-BRET target engagement assay (B-cat-Halo & TCF4-Luc in HEK293 cells)
Type: cell-based
Settings: absolute IC50; read-out: NanoBRET Abs IC50
pIC50: −log10 of the molar value.
Quick reference for pIC50 among some compounds

{"COMPOUND": "CC(=O)N1CCC[C@]12CC=CCCCC1(CCCC=CCCCCCC[C@@](C)(C(=O)N[C@@H](Cc3cccs3)C(=O)N[C@@H](Cc3csc4ccccc34)C(=O)N[C@H](CO)[C@@H](C)O)NC(=O)[C@H](CCO)NC(=O)[C@H](Cc3ccccc3)NC(=O)[C@H](C)NC(=O)[C@H](C)NC(=O)[C@H](CC(=O)O)NC(=O)[C@H](CC(=O)O)NC1=O)NC(=O)[C@H](CC(C)(C)C)NC(=O)[C@H](CC(=O)O)NC2=O (some centres unmarked) [I-1393]", "pIC50": 4.73}
{"COMPOUND": "CC(=O)N1CCC[C@]12CC=CCCCC1(CCCC=CCCCOC(=O)N3CC[C@@](C(=O)N[C@@H](Cc4ccccc4F)C(=O)N[C@@H](Cc4csc5ccccc45)C(=O)N[C@@H](CCC(N)=O)C(N)=O)(C3)NC(=O)[C@H]([C@@H](C)O)NC(=O)[C@H](Cc3ccccc3)NC(=O)[C@H](C)NC(=O)[C@H](C)NC(=O)[C@H](CC(=O)O)NC(=O)[C@H](CC(=O)O)NC1=O)NC(=O)[C@H](CC(C)(C)C)NC(=O)[C@H](CC(=O)O)NC2=O (some centres unmarked) [I-1021]", "pIC50": 4.94}
